system: WiDr; assay: Anticancer activity against human WiDr cells assessed as inhibition of cell proliferation measured after 72 hrs by MTT assay; type: functional, cell-based
Label true when IC50 is strictly below 50 µM; otherwise label false.

[
  {
    "compound": "O=c1[nH]cc(F)c(=O)[nH]1 [FLUOROURACIL]",
    "system_tested": "WiDr",
    "label": "true"
  },
  {
    "compound": "C[C@]12CC[C@H]3[C@@H](CC[C@@]45O[C@@H]4CCC[C@]35C)[C@@H]1CC/C2=N\\O",
    "system_tested": "WiDr",
    "label": "false"
  },
  {
    "compound": "C[C@]12CCCC=C1CC[C@@H]1[C@@H]2CC[C@]2(C)C(=O)CC[C@@H]12",
    "system_tested": "WiDr",
    "label": "true"
  },
  {
    "compound": "C[C@]12CCC=C[C@@H]1CC[C@@H]1[C@@H]2CC[C@]2(C)/C(=N/O)CC[C@@H]12",
    "system_tested": "WiDr",
    "label": "true"
  },
  {
    "compound": "C[C@]12CC[C@H]3O[C@H]3[C@@H]1CC[C@@H]1[C@@H]2CC[C@]2(C)C(=O)CC[C@@H]12",
    "system_tested": "WiDr",
    "label": "false"
  },
  {
    "compound": "C[C@]12CC[C@H]3O[C@H]3[C@@H]1CC[C@@H]1[C@@H]2CC[C@]2(C)/C(=N/O)CC[C@@H]12",
    "system_tested": "WiDr",
    "label": "false"
  },
  {
    "compound": "C[C@]12CCCC=C1CC[C@@H]1[C@@H]2CC[C@]2(C)/C(=N/O)CC[C@@H]12",
    "system_tested": "WiDr",
    "label": "true"
  },
  {
    "compound": "CCc1c2c(nc3ccc(OC(=O)N4CCC(N5CCCCC5)CC4)cc13)-c1cc3c(c(=O)n1C2)COC(=O)[C@]3(O)CC [IRINOTECAN]",
    "system_tested": "WiDr",
    "label": "true"
  },
  {
    "compound": "C[C@]12CC[C@H]3[C@@H](CC[C@@]45O[C@@H]4CCC[C@]35C)[C@@H]1CCC2=O",
    "system_tested": "WiDr",
    "label": "false"
  }
]

---

system: CCD-841CoN; test: Anticancer activity against human CCD841 CoN cells assessed as inhibition of cell proliferation measured after 72 hrs by MTT assay; type: cell-based
pIC50: −log10 of the molar value.
readout_name: pIC50

[
  {
    "smiles_entry": "C[C@]12CCC=C[C@@H]1CC[C@@H]1[C@@H]2CC[C@]2(C)/C(=N/O)CC[C@@H]12",
    "system_tested": "CCD-841CoN",
    "readout_name": "pIC50",
    "readout_relation": "=",
    "test_value": 4.50
  },
  {
    "smiles_entry": "C[C@]12CCCC=C1CC[C@@H]1[C@@H]2CC[C@]2(C)/C(=N/O)CC[C@@H]12",
    "system_tested": "CCD-841CoN",
    "readout_name": "pIC50",
    "readout_relation": "<",
    "test_value": 4.12
  }
]
